- Tested on: AURKC;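 further: KINOMEscan kinase panel screen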
- test conditions: concentration: 1 μM, replicates: in singlicate; n = 1
Recorded %Inh for the following molecules
property name: %Inh (%)

{"molecule": "CCC(=O)c1c(-c2ccccc2)c2cc(Cl)ccc2c(=O)n1Cc1cc(S(C)(=O)=O)n(CCC(C)(C)O)n1", "unit abbreviation": "%", "value reported": 12}
{"molecule": "Cc1ccc(Oc2ccc(Nc3ncnc4cc[nH]c34)cc2C)cn1", "unit abbreviation": "%", "value reported": 10}
{"molecule": "CC(C)(C)c1ccc(C(=O)Nc2cn3cc(-c4ccccc4)ccc3n2)cc1", "unit abbreviation": "%", "value reported": 0}
{"molecule": "Cn1c(=O)c(F)c(Nc2ccc(I)cc2F)c2c(=O)n(OC[C@H](O)CO)cnc21", "unit abbreviation": "%", "value reported": 30}
{"molecule": "COc1cc(Nc2nccc(N3CCC(NC(=O)C(C)c4ccc(Cl)cc4)C3)n2)cc(OC)c1OC (centres unmarked)", "unit abbreviation": "%", "value reported": 72}
{"molecule": "Cc1nc(N(C)[C@H]2CN(C(=O)CC#N)CC[C@H]2C)c2cc[nH]c2n1", "unit abbreviation": "%", "value reported": 0}
{"molecule": "CCn1c(-c2nonc2N)nc2ccccc21", "unit abbreviation": "%", "value reported": 0}
{"molecule": "COc1cccc(C2=C(N(C)c3ccccc3)C(=O)NC2=O)c1", "unit abbreviation": "%", "value reported": 0}
{"molecule": "C[C@@H]1CC[C@H](C(=O)NC2CCCCC2)CN1c1cc(-c2ccc3c(N)n[nH]c3c2)nc(N)n1", "unit abbreviation": "%", "value reported": 69}
{"molecule": "CCc1nc(-c2cccc(C)c2)c(-c2ccncc2)s1", "unit abbreviation": "%", "value reported": 0}
{"molecule": "CCn1c(-c2ccoc2)nc2cnccc21", "unit abbreviation": "%", "value reported": 10}
{"molecule": "Cc1nnc(-c2ccc3ncn(-c4ccc(S(C)=O)cc4)c3c2)o1 (centres unmarked)", "unit abbreviation": "%", "value reported": 5}
{"molecule": "CCc1ccc(-c2ccc3c(c2)-c2nn(C)cc2S(=O)(=O)N3C)cc1", "unit abbreviation": "%", "value reported": 0}
{"molecule": "Nc1n[nH]c2nnc(-c3ccccc3)c(-c3ccccc3)c12", "unit abbreviation": "%", "value reported": 13}
{"molecule": "COc1cc(OC)cc(-c2cc3cnc(N)nc3nc2NC(=O)NC(C)(C)C)c1", "unit abbreviation": "%", "value reported": 0}
{"molecule": "COc1cc(Nc2ccnc3ccc(C(F)(F)F)cc23)cc(OC)c1OC", "unit abbreviation": "%", "value reported": 7}
{"molecule": "FC(F)(F)c1ccc(-c2ncn(CCCN3CCOCC3)c2-c2ccncc2)cc1", "unit abbreviation": "%", "value reported": 27}
{"molecule": "Cc1nnc(-c2ccc(C)c(-c3ccc(C(=O)O)cc3)c2)o1", "unit abbreviation": "%", "value reported": 6}
{"molecule": "CCC(=O)c1c(-c2ccccc2)c2cc(Cl)ccc2c(=O)n1Cc1cc(S(C)(=O)=O)n(CC(N)=O)n1", "unit abbreviation": "%", "value reported": 0}
{"molecule": "COC(=O)c1c(-c2ccccc2)c2cc(Br)ccc2c(=O)n1Cc1ccc(S(C)(=O)=O)cc1", "unit abbreviation": "%", "value reported": 0}
{"molecule": "O=C(Nc1n[nH]c2nc(-c3ccccc3)c(Cl)cc12)C1CC1", "unit abbreviation": "%", "value reported": 25}
{"molecule": "CCCC(=O)Nc1n[nH]c2ncc(-c3cccc4ccccc34)cc12", "unit abbreviation": "%", "value reported": 16}
{"molecule": "COC(=O)c1c(-c2ccccc2)c2cc(C)ccc2c(=O)n1Cc1ccccc1", "unit abbreviation": "%", "value reported": 0}
{"molecule": "COc1ccc(-c2coc3ccc(-c4nnc(SCc5cccc(C#N)c5)o4)cc23)cc1", "unit abbreviation": "%", "value reported": 0}
{"molecule": "COc1ccc(CNC(=O)NC2CCN(c3ccnc(Nc4ccc(F)cc4)n3)C2)cc1 (centres unmarked)", "unit abbreviation": "%", "value reported": 19}
{"molecule": "Nc1nc(-c2ccccc2F)c(-c2ccnc3ccccc23)s1", "unit abbreviation": "%", "value reported": 17}
{"molecule": "COc1ccc(-c2cc3c(C)nc(N)nc3n([C@H]3CC[C@H](O)CC3)c2=O)cn1", "unit abbreviation": "%", "value reported": 0}
{"molecule": "CCC(=O)c1c(-c2ccccc2)c2cc(Cl)ccc2c(=O)n1Cc1ccc(C(=O)O)cc1", "unit abbreviation": "%", "value reported": 0}
{"molecule": "Nc1ncnc2c1ncn2-c1cccc2ccccc12", "unit abbreviation": "%", "value reported": 0}
{"molecule": "Cc1cc(Nc2nc(-c3cccc(C)n3)nc3ccccc23)ccn1", "unit abbreviation": "%", "value reported": 0}
{"molecule": "Nc1nc(N)c2nc(-c3ccccc3)[nH]c2n1", "unit abbreviation": "%", "value reported": 1}
{"molecule": "CCS(=O)(=O)c1ccc(OC)c(Nc2ncc(-c3ccc(F)cc3)o2)c1.Cl", "unit abbreviation": "%", "value reported": 26}
{"molecule": "Fc1cccc(CSc2nnc(-c3ccc4c(c3)CCO4)o2)c1", "unit abbreviation": "%", "value reported": 0}
{"molecule": "Cc1cccc(-c2nc(Nc3ccc4c(cnn4C)c3)c3ccccc3n2)n1", "unit abbreviation": "%", "value reported": 0}
{"molecule": "CCCNC(=O)Nc1ccc(Oc2ncnc3ccn(C)c23)cc1", "unit abbreviation": "%", "value reported": 0}
{"molecule": "Nc1ncnc2c1ncn2-c1ccc(Cl)cc1", "unit abbreviation": "%", "value reported": 17}
{"molecule": "O=C(Nc1n[nH]c2nc(-c3ccccc3)c(Br)cc12)C1CC1", "unit abbreviation": "%", "value reported": 36}
{"molecule": "CN(C)c1cc(-c2ccc3c(N)n[nH]c3c2)nc(N)n1", "unit abbreviation": "%", "value reported": 9}
